Origin of measurements: PubChem BioAssay

Test: E. coli acrAB mutant growth effects, primary screen, E. coli filamentation inducers, strain DRC39, OD650, 48 h (AID 1179);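 note: screen aims at cell division blockers that make cells filament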
Condition details: E. coli DRC39 delta-acrAB growth, higher = more signal, called active from +8 up or from −8 down
Metric: z-score
Respond with the number and no other words.

Use the examples below as a reference point.
Cn1c(=O)n2n(c1=O)[C@H]1[C@H](O)[C@@H]3O[C@@H]3C(=O)[C@H]1CC2; 0.166
CCOC(=O)NN=C1C[C@@H](O)[C@@H](O)[C@@H]2[C@@H]3C(=O)N(c4cccc(Oc5ccccc5)c4)C(=O)[C@@H]3CC[C@H]12; -0.642
C[C@H]1CC[C@H]2C(=O)O[C@H](COc3ccc(C(C)(C)C)cc3)CN2[C@@H]1c1ccc(Br)cc1; -1.37

Turning now to a further molecule:
Fill in z-score for record COC(=O)[C@H](C)NC(=O)CCC1CC(OC(=O)NCc2ccc3c(c2)OCO3)CC2(CCCC(COC(=O)NCC3CCCCC3)O2)O1 (some centres undefined) 0.139
